# experimental.details: reducers of endogenous Her2 protein level, primary screen, SKBR3 breast tumor cells, AlphaScreen, ATP viability (AID 461);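 further: percent of carrier control wells set as 100% viability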
# details: 18-24 h, measured here: SKBR3 viability, ATP luminescence, at 10 µM
readout.kind: viability (%)
Write it as a number; the unit % goes unstated.

Example compounds with recorded viability:
compound: CNC(=O)CN(c1cc(C)ccc1OC)S(=O)(=O)c1ccc(C)cc1
observed.result: 93
//
compound: CC1=C(C(=O)OC2CCCCC2)C(c2cccnc2)n2ncnc2N1 (stereo unspecified)
observed.result: 104
//
compound: CC(C(=O)N1CCc2ccccc21)N1CCc2ccccc2C1 (stereo unspecified)
observed.result: 82
//
compound: O=c1[nH]cnc2c1nc(SCc1ccccc1)n2C1OC(CO)C(O)C1O (stereo unspecified)
observed.result: 94.5
//
compound: Cc1ccc(-c2nnn(CC(=O)NC3CC4CCC3C4)n2)cc1 (stereo unspecified)
observed.result: 109
//
compound: CCN(CC)Cc1nc2c(c(=O)[nH]1)C1(CCCCC1)Cc1ccccc1-2
observed.result: 87
//
compound: CC(C)(Oc1ccc(Cl)cc1)C(=O)NC1CCSC1=O (stereo unspecified)
observed.result: 101
//
compound: COC(=O)c1cc(NC(=O)C2COc3ccccc3O2)cc(C(=O)OC)c1 (stereo unspecified)
observed.result: 106
//
compound: CCC(Sc1nc2sc(C(=O)OC)c(C)c2c(=O)n1N)C(=O)NCC1CCCO1 (stereo unspecified)
observed.result: 102
//
compound: CN=C1CC(C)(C)CC(=O)/C1=C(/O)CCC(=O)NC
observed.result: 104

The reported viability of the compound `Cc1cc(NC(=O)Cn2cnc3c2c(=O)n(C)c(=O)n3C)n(-c2ccccc2)n1` was 116

---

# experimental.details: reversal of MRP1-mediated doxorubicin resistance, pilot screen, H69AR cells, doxorubicin co-treatment (AID 601)
# details: H69AR cells, CellTiter-Glo, 72 h; compound alone cytotoxicity; at 10 µM
Recorded viability, one value per entry.

Example results:
compound: CC1(C)Cc2cccc(OCC(=O)O)c2O1
viability: 95.4%
//
compound: Cn1c(=N)n(CC(=O)O)c2ccccc21
viability: 96.2%
//
compound: COc1ccc(N2CCN(c3ccc(N)cc3C#N)CC2)cc1
viability: 95%
//
compound: C=CCn1c(-c2cccs2)nc2nc3ccccc3nc21
viability: 54.3%
//
compound: C=CCN1C(=O)C2(C(C#N)=C(N)Oc3n[nH]c(CCC)c32)c2ccccc21 (centres undefined)
viability: 87.8%
//
compound: O=C(Nc1ccccc1)N(CCN1CCOCC1)Cc1ccccc1F
viability: 92.3%
//
compound: CN1CC(=O)N(CC(=O)NCCc2ccc(F)cc2)c2ccccc2C1=O
viability: 90%
//
compound: CC(C)=CCCC(C)CN(C)CCc1ccccn1 (centres undefined)
viability: 98.6%

Input `CCCN(Cc1cc2cc(C)ccc2[nH]c1=O)C(=O)c1cccc(OC)c1` . Output viability: 81.2%

GET /value?item= `CC(C)OCCCNC(=O)c1cc2c(s1)CS(=O)(=O)C2` &field=viability returns 94.6%

The compound listed as `COC(=O)c1cc2ccsc2n1CC(=O)Nc1cc(C)cc(C)c1` shows viability equal to 84.8%

According to the records, this compound `NC(=O)COC(=O)CNC(=O)c1ccc(Cl)cc1` displays viability of 101%

Looking up CCOC(=O)CSC1=C(C#N)C(=O)NC(c2ccc(OC)c(OC)c2)S1 (centres undefined) , I see its viability listed as 97.2%
